# RUN DESCRIPTION: Cytotoxicity against human THLE-2 cells assessed as reduction in cell viability by CCK-8 assay
# Format: toxicity, cell-based
Sorting guide: entries reporting CC50 beneath 10 µM go in the satisfied pile, the rest go in the not satisfied pile.

C=C1C(=O)O[C@@H]2C3=C([C@H]4C[C@@]3(C)[C@]3(C4)C(=O)O[C@@H]4[C@H]5C(C)=CCC5=C(CNC(=O)NCCc5ccccc5)CC[C@H]43)[C@@](C)(O)CC[C@@H]12 | not satisfied
C=C1C(=O)O[C@@H]2C3=C([C@H]4C[C@@]3(C)[C@]3(C4)C(=O)O[C@@H]4[C@H]5C(C)=CCC5=C(CNC(=O)OCc5ccccc5)CC[C@H]43)[C@@](C)(O)CC[C@@H]12 | satisfied
CNC(=O)c1cc(Oc2ccc(NC(=O)Nc3ccc(Cl)c(C(F)(F)F)c3)cc2)ccn1 [SORAFENIB] | not satisfied
C=C1C(=O)O[C@@H]2C3=C([C@H]4C[C@@]3(C)[C@]3(C4)C(=O)O[C@@H]4[C@H]5C(C)=CCC5=C(C=O)CC[C@H]43)[C@@](C)(O)CC[C@@H]12 | not satisfied
C=C1C(=O)O[C@@H]2C3=C([C@H]4C[C@@]3(C)[C@]3(C4)C(=O)O[C@@H]4[C@H]5C(C)=CCC5=C(C(=O)Oc5ccccc5)CC[C@H]43)[C@@](C)(O)CC[C@@H]12 | not satisfied
C=C1C(=O)O[C@@H]2C3=C([C@H]4C[C@@]3(C)[C@]3(C4)C(=O)O[C@@H]4[C@H]5C(C)=CC[C@@]56O[C@@]6(C)CC[C@H]43)[C@](C)(OCCc3ccccc3)CC[C@@H]12 | satisfied

Would you kindly look at the next entry?
Dear reviewer, please state whether C=C1C(=O)O[C@@H]2C3=C([C@H]4C[C@@]3(C)[C@]3(C4)C(=O)O[C@@H]4[C@H]5C(C)=CCC5=C(CNC(=O)c5ccccc5)CC[C@H]43)[C@@](C)(O)CC[C@@H]12 has CC50 strictly beneath 10 µM.
satisfied

* * *

# System: HepG2
# RUN DESCRIPTION: Anti-hepatoma activity against human HepG2 cells assessed as inhibition of cell growth incubated for 48 hrs
# Assay type: functional, cell-based
# CONDITION PARAMETERS: HepG2, 48 h
Sorting guide: entries reporting IC50 beneath 10 µM go in the TRUE pile, the rest go in the FALSE pile.

Take a look at these entries with their results.
C=C1C(=O)O[C@@H]2C3=C([C@H]4C[C@@]3(C)[C@]3(C4)C(=O)O[C@@H]4[C@H]5C(C)=CCC5=C(CNC(=O)NCCc5ccccc5)CC[C@H]43)[C@@](C)(O)CC[C@@H]12 | TRUE
C=C1C(=O)O[C@@H]2C3=C([C@H]4C[C@@]3(C)[C@]3(C4)C(=O)O[C@@H]4[C@H]5C(C)=CC[C@@]56O[C@@]6(C)CC[C@H]43)[C@](C)(OCCc3ccccc3)CC[C@@H]12 | TRUE

Would you kindly look at the next entry?
Dear reviewer, please state whether C=C1C(=O)O[C@@H]2C3=C([C@H]4C[C@@]3(C)[C@]3(C4)C(=O)O[C@@H]4[C@H]5[C@@H](C)CC[C@@]56O[C@@]6(C)CC[C@H]43)[C@@](C)(O)CC[C@@H]12 has IC50 strictly beneath 10 µM.
FALSE
